Dmax reference
- assay-system: SMARCA2 (Homo sapiens, UniProt P51531)
- Sequence (P51531 whole entry): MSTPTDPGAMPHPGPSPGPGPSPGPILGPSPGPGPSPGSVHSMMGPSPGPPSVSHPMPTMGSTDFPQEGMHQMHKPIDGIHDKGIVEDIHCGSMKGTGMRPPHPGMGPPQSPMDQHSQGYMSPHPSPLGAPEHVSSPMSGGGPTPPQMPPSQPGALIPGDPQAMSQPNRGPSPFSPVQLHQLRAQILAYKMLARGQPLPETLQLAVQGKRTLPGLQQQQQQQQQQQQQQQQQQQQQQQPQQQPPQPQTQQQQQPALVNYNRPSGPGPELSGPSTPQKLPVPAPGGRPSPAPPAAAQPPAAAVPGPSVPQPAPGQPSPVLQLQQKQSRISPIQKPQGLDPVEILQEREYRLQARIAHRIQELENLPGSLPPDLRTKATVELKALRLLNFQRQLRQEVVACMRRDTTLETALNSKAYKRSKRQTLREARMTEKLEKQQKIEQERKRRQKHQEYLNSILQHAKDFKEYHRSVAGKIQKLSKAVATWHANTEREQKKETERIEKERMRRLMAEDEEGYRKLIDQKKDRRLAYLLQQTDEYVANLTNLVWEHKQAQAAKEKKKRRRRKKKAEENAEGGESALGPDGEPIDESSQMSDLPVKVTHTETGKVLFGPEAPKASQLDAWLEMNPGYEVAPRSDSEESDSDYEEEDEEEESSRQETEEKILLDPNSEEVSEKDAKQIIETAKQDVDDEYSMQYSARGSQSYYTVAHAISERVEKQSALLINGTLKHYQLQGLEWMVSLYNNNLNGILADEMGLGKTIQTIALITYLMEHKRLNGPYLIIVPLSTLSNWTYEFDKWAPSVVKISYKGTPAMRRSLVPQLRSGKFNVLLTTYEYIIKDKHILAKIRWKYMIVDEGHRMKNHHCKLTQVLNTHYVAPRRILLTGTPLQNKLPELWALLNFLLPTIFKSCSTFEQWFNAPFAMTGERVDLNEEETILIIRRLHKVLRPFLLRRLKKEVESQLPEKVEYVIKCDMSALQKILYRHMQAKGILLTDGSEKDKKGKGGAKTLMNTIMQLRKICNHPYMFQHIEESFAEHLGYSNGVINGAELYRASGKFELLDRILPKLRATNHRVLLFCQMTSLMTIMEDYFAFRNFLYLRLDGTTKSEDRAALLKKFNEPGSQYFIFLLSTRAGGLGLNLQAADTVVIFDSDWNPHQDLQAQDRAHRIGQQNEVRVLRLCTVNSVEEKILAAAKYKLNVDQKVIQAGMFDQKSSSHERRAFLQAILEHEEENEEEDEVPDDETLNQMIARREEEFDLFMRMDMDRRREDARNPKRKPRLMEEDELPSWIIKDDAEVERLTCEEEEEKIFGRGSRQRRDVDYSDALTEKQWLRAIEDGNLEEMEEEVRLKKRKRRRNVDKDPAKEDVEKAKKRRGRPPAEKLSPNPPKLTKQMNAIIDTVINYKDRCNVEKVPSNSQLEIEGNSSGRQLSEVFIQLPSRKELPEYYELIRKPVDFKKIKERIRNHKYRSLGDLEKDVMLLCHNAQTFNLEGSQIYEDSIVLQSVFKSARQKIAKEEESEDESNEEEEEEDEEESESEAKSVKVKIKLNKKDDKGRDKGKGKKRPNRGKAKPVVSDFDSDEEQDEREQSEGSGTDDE
- assay-text: SMARCA2 Western blot degradation in MV4-11 cells
- Format: cell-based
- Design: SMARCA2/SMARCA4 protein degradation selectivity in MV4-11 cells; endogenous in cells; host or cells: MV4-11
- test-conditions: MV4-11, MV4-11 cells, 24 h; read-out: SMARCA2 MSD MV411 degradation 24 h: average Dmax %
property-label: Dmax

[[record]]
compound = "C#Cc1ccc(CNC(=O)[C@@H]2C[C@@H](O)CN2C(=O)[C@@H](NC(=O)[C@H]2CCC3(CC2)C[C@H](N2CCN(c4cnc(N5CCN6c7cc(-c8ccccc8O)nnc7NC[C@H]6C5)nc4)CC24CC4)C3)C(C)(C)C)cc1 (stereo partly drawn) [I-266]"
assay_system = "SMARCA2 (Homo sapiens, UniProt P51531)"
property_label = "Dmax"
endpoint_value = "> 90%"

[[record]]
compound = "C#Cc1ccc(CNC(=O)[C@@H]2C[C@@H](O)CN2C(=O)[C@@H](NC(=O)N2CCO[C@@H](CN3CCC(N4CCC(N5CCN6c7cc(-c8ccccc8O)nnc7NC[C@H]6C5)CC4)CC3)C2)C(C)(C)C)cc1 [I-218]"
assay_system = "SMARCA2 (Homo sapiens, UniProt P51531)"
property_label = "Dmax"
endpoint_value = "< 50%"

[[record]]
compound = "C#Cc1ccc(CNC(=O)[C@@H]2C[C@@H](O)CN2C(=O)[C@@H](NC(=O)CCCCCCCN2CCC(N3CC4(CC(N5CCN6c7cc(-c8ccccc8O)nnc7NC[C@H]6C5)C4)C3)CC2)C(C)(C)C)cc1 [I-243]"
assay_system = "SMARCA2 (Homo sapiens, UniProt P51531)"
property_label = "Dmax"
endpoint_value = "70 to 90%"

[[record]]
compound = "C#Cc1ccc(CNC(=O)[C@@H]2C[C@@H](O)CN2C(=O)[C@@H](NC(=O)[C@H]2CC[C@@H](CN3CCC(c4cnc(N5CCN6c7cc(-c8ccccc8O)nnc7NC[C@H]6C5)nc4)CC3)CC2)C(C)(C)C)cc1 [I-293]"
assay_system = "SMARCA2 (Homo sapiens, UniProt P51531)"
property_label = "Dmax"
endpoint_value = "70 to 90%"

[[record]]
compound = "CC(C)C(C(=O)N1C[C@H](O)C[C@H]1C(=O)NCc1ccc(Cl)cc1)c1cc(N2CC3(CC(N4CCC(c5cnc(N6CCN7c8cc(-c9ccccc9O)nnc8NC[C@H]7C6)nc5)CC4)C3)C2)no1 (stereo partly drawn) [I-17]"
assay_system = "SMARCA2 (Homo sapiens, UniProt P51531)"
property_label = "Dmax"
endpoint_value = "< 50%"

[[record]]
compound = "Cc1ncsc1-c1ccc(CNC(=O)[C@@H]2C[C@@H](O)CN2C(=O)C(c2cc(OCCCN3CCC(c4cnc(N5CCN6c7cc(-c8ccccc8O)nnc7NC[C@H]6C5)nc4)CC3)no2)C(C)C)cc1 (single isomer, unassigned) [I-53]"
assay_system = "SMARCA2 (Homo sapiens, UniProt P51531)"
property_label = "Dmax"
endpoint_value = "> 90%"

[[record]]
compound = "C#Cc1ccc(CNC(=O)[C@@H]2C[C@@H](O)CN2C(=O)[C@@H](NC(=O)N2CCC(CN3CCC(N4CCC(N5CCc6[nH]c7nnc(-c8ccccc8O)cc7c6[C@H]5C)CC4)CC3)CC2)C(C)(C)C)cc1 [I-189]"
assay_system = "SMARCA2 (Homo sapiens, UniProt P51531)"
property_label = "Dmax"
endpoint_value = "< 50%"

[[record]]
compound = "Cc1ncsc1-c1ccc(CNC(=O)[C@@H]2C[C@@H](O)CN2C(=O)C(c2cc(N3CC4(CC(N5CCC(c6cnc(N7CCc8[nH]c9nnc(-c%10ccccc%10O)cc9c8[C@H]7C)nc6)CC5)C4)C3)no2)C(C)C)cc1 (single isomer, unassigned) [I-10]"
assay_system = "SMARCA2 (Homo sapiens, UniProt P51531)"
property_label = "Dmax"
endpoint_value = "> 90%"

[[record]]
compound = "Cc1ncsc1-c1ccc(CNC(=O)[C@@H]2C[C@@H](O)CN2C(=O)[C@@H](NC(=O)C2(F)CC2)C(C)(C)C)c(OCCCCN2CCC(c3cnc(N4CCN5c6cc(-c7ccccc7O)nnc6NC[C@H]5C4)nc3)CC2)c1 (single isomer, unassigned) [I-49]"
assay_system = "SMARCA2 (Homo sapiens, UniProt P51531)"
property_label = "Dmax"
endpoint_value = "> 90%"

